Attribution: patent US5817490A

List of Amount Found values.
Format: physicochemical
Conditions: 100 ppm standard, 715 minutes
metric: Amount Found

[[record]]
compound = "O=C(O)C(=O)[C@@H](O)[C@H](O)[C@@H](O)CO [KLG, 2-keto-L-gulonic acid]"
metric = "Amount Found"
test_value = "81.8 ppm"

[[record]]
compound = "O=C1O[C@H]([C@@H](O)CO)C(O)=C1O [ASA, ascorbic acid]"
metric = "Amount Found"
test_value = "57.2 ppm"

[[record]]
compound = "COC(=O)C(=O)[C@@H](O)[C@H](O)[C@@H](O)CO [MeKLG, methyl-2-keto-L-gulonate]"
metric = "Amount Found"
test_value = "90.2 ppm"

[[record]]
compound = "CCCCOC(=O)C(=O)[C@@H](O)[C@H](O)[C@@H](O)CO [butyl-KLG, butyl 2-keto-L-gulonate]"
metric = "Amount Found"
test_value = "94.2 ppm"

